Consider the following molecules; for each one, report its LC50 at 72 h.
test: Toxicity in Artemia salina assessed as mortality after 72 hrs; format: organism-based; conditions: in vivo, read-out: LD50
Give bare numbers, in µg/mL.

CC(Nc1ccc(O)cc1)(c1cccnc1)P(=O)(Oc1ccccc1)Oc1ccccc1 (stereo not given) ... 1000

Please go through the list and note LC50 at 72 h for each molecule.
1. CC(Nc1ccccc1)(c1cccnc1)P(=O)(Oc1ccccc1)Oc1ccccc1 (stereo not given)
2. CC(Nc1ccc(Cl)cc1)(c1cccnc1)P(=O)(Oc1ccccc1)Oc1ccccc1 (stereo not given)
3. Cc1ccc(NC(C)(c2cccnc2)P(=O)(Oc2ccccc2)Oc2ccccc2)cc1 (stereo not given)
4. CC(NNc1ccccc1)(c1cccnc1)P(=O)(Oc1ccccc1)Oc1ccccc1 (stereo not given)

Reply text:
1. 915
2. 38
3. 83
4. 843

###

assay: Toxicity in Artemia salina assessed as mortality at 1000 ug/mL after 72 hrs; assay type: organism-based; settings: in vivo, read-out: Activity
Consider the following molecules; for each one, report its mortality at 72 h, 1000 ug/mL.

CC(Nc1ccc(Cl)cc1)(c1cccnc1)P(=O)(Oc1ccccc1)Oc1ccccc1 (stereo not given) ... 100%

Please go through the list and note mortality at 72 h, 1000 ug/mL for each molecule.
1. CC(Nc1ccccc1)(c1cccnc1)P(=O)(Oc1ccccc1)Oc1ccccc1 (stereo not given)
2. CC(Nc1ccc(O)cc1)(c1cccnc1)P(=O)(Oc1ccccc1)Oc1ccccc1 (stereo not given)
3. Cc1ccc(NC(C)(c2cccnc2)P(=O)(Oc2ccccc2)Oc2ccccc2)cc1 (stereo not given)

Reply text:
["60%", "60%", "10%"]

Inquiry: // query mortality at 72 h, 1000 ug/mL value for entry CC(NNc1ccccc1)(c1cccnc1)P(=O)(Oc1ccccc1)Oc1ccccc1 (stereo not given)
Reply text: 60%

###

assay: Toxicity in Artemia salina assessed as mortality at 100 ug/mL after 72 hrs; assay type: organism-based; conditions: in vivo, read-out: Activity
recordedMetric: mortality at 72 h, 100 ug/mL (%)
Numbers only, in %.

Inquiry: // query mortality at 72 h, 100 ug/mL value for entry CC(Nc1ccc(Cl)cc1)(c1cccnc1)P(=O)(Oc1ccccc1)Oc1ccccc1 (stereo unspecified)
Reply text: 15
